Molecular target: human PPARγ receptor (Homo sapiens)
Sequence (P19793 whole entry): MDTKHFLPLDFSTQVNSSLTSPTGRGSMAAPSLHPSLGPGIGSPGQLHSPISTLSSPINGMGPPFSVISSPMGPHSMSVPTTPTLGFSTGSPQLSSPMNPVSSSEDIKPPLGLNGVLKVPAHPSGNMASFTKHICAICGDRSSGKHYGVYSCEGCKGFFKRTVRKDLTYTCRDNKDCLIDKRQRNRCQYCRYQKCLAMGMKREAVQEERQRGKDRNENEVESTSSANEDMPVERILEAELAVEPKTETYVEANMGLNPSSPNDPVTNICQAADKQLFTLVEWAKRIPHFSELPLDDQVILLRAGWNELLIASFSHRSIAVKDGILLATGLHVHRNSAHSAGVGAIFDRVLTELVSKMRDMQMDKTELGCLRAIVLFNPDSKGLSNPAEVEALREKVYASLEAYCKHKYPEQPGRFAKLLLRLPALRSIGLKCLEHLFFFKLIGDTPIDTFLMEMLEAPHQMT
Sequence (P37231 whole entry): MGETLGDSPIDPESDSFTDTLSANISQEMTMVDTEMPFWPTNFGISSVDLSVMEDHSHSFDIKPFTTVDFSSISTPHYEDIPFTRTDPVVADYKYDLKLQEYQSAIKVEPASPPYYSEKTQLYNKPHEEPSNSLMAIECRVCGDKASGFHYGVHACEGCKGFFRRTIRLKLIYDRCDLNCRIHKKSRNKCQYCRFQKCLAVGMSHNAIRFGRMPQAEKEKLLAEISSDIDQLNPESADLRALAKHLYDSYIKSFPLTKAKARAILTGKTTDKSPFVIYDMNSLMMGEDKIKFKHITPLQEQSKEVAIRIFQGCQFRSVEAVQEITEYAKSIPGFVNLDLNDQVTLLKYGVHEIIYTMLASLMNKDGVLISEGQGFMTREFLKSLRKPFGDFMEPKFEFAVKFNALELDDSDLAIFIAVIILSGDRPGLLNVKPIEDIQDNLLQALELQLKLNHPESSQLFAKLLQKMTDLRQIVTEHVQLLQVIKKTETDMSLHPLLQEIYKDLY
Experiment: Binding test by competition with tritiated reference agonist (hydroxyapatite gel)
Details: hPPARγ/RXRα heterodimers from SF9 insect cells
pKd: −log10 of the molar value.
# Lookup of reported pKd keyed by entry
Measurement kind: pKd

Molecule	Subject of test	Measurement kind	Observed
CCO[C@@H](Cc1ccc(-c2cccc(CN(C)C(=O)CCCCC(=O)c3ccccc3)c2)cc1)C(=O)O	human PPARγ receptor (Homo sapiens)	pKd	8.02
CN(Cc1cccc(-c2ccc(CC3SC(=O)NC3=O)cc2)c1)C(=O)c1ccc(-c2ccccc2)cc1 (centres unmarked)	human PPARγ receptor (Homo sapiens)	pKd	7.22
CCO[C@@H](Cc1ccc(-c2cccc(CN(C)C(=O)c3ccc(-c4ccccc4)cc3)c2)cc1)C(=O)O	human PPARγ receptor (Homo sapiens)	pKd	8.10
CN(Cc1cccc(-c2ccc(CC3SC(=O)NC3=O)cc2)c1)C(=O)CCCCC(=O)c1ccccc1 (centres unmarked)	human PPARγ receptor (Homo sapiens)	pKd	7.22
COC(=O)c1ccc(C(=O)N(C)Cc2cccc(-c3ccc(CC4SC(=O)NC4=O)cc3)c2)cc1 (centres unmarked)	human PPARγ receptor (Homo sapiens)	pKd	6.43
